- methodNotes: qHTS Assay for Identifying a Potential Treatment of Ataxia-Telangiectasia: Hit Validation;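 further: phospho-KAP1 level by AlphaLISA as a proxy for ATM-like kinase activity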
- condition: Ataxia-telangiectasia cell-based hit validation qHTS, in ATM-null A-T patient fibroblasts; series mostly up to 76.9 µM
Records with an inconclusive call do not appear. The source made the active and inactive calls. The call rests on the fitted dose curve; in most records, active means well fitted activation curve with a large enough effect; inconclusive means small, poorly fitted or top-dose-only effect; inactive means no such curve, though single readings can be large or run the other way.
Please answer using one outcome listed in Y = active, N = inactive

compound	answerLabel
CCCCn1c(O)c(C(=O)/C=C/c2c[nH]c3ccccc23)c(=O)[nH]c1=O	N
Cc1ccc(-n2c(O)c(C=NCC3CCCO3)c(=O)[nH]c2=O)c(C)c1 (centres undefined)	N
CC(=O)OC1CC[C@]2(C#N)[C@H]3CC[C@]4(C)[C@H](C5C=CC(=O)O5)CCC4(O)C3CCC2(O)C1 (some centres undefined)	N

Input: Lab log entry: Cc1cccc(N2C(=O)NC(=O)/C(=C\C=C\c3ccco3)C2=O)c1 — outcome as called in the assay?
Output: N

Input: Tell me the recorded outcome of this test for CC1(C)C[C@H]2C=C(C=O)[C@]3(C=O)C[C@]3(C)[C@H]2C1 .
Output: Y

Input: Identify the outcome logged in this assay for the compound shown: C/C=C/c1ccc2c(c1)OCO2
Output: N

Input: Tell me the assay call for CCN1C(=O)N(CC)C(=O)C2(Cc3ccccc3N3CCN(c4ccccc4)CC32)C1=O (centres undefined) please.
Output: N

Input: Please indicate how the test categorized CCN(CC)S(=O)(=O)c1ccc(C(=O)NC2CN3CCC2CC3)cc1 (centres undefined) .
Output: N

Input: Per the records of this test, what outcome belongs to CCc1ccc(N2C(=O)NC(=O)/C(=C\C=C\c3ccco3)C2=O)cc1 ?
Output: N

Recorded values, source PubChem BioAssay AID493192.
